Test: in vivo pharmacokinetic studies in mice (Example 1)
Set-up: species or system mouse
Settings: male, CD-1, mouse, in vivo, po, 10 mg/kg, intact prodrug, plasma; mice, 10 mg/kg eqv
Endpoint name: AUC (µM·h)

>>> quantitative_result("COc1cc(-c2nc(-c3ccccc3)c(-c3cccs3)[nH]2)cc(OC)c1OC(=O)N1CCC(N2CCCCC2)CC1 [Compound P1]")
0.805

###

Assay: in vivo pharmacokinetic studies in mice (Example 1)
Design: species or system mouse
Conditions: male, CD-1, mouse, plasma, po, 10 mg/kg
Endpoint name: Cmax (nM)

>>> quantitative_result("COc1cc(-c2nc(-c3cccs3)c(-c3ccccc3)[nH]2)cc(OC)c1O [DPTIP, reference compound]")
400
